# Tested on: NCI-H460 lung
# test_method_notes: NCI tumour cell line growth inhibition, 48 h
assay_metric: log10(TGI) (log10 of the value in µM)
In plain terms, each number is the log10 of measured TGI in µM.

                                   compound  measured_value
0  C=CCOc1ccc2c(c1)CC[C@@H]1[C@@H]2CC[C@]2(C)C(=O)/C(=N/O)C[C@@H]12            1.34
1  O=c1[nH]nc(-c2ccccc2)c2[nH]c3c(c12)CCCc1ccccc1-3            1.78
2  OC(c1cc2c(Cl)cc(Cl)cc2c2cc(C(F)(F)F)ccc12)C1CCCCN1 (stereo unspecified)            0.53
3  O=C1CSC2(CC(/C=C/c3ccccc3[N+](=O)[O-])=NN2c2cccc(S(=O)(=O)O)c2)N1c1nc2ccccc2s1 (stereo unspecified)            1.72
4  CCCCCCCCCCCC(=O)[O][Sn]([CH2]CCC)([CH2]CCC)[CH2]CCC           -0.81

Inquiry: Recorded log10(TGI) of CC(C)(C)OC(=O)/C=C/[C@@H](CCC(=O)/C=C/[C@H](/C=C\CCCC(=O)O)NC1(c2ccccc2)c2ccccc2-c2ccccc21)O[Si](C)(C)C(C)(C)C , please.
Reply text: 1.54

Inquiry: And then Oc1ccccc1/C=N/N1C(=S)N(c2ccccc2)C(=Nc2ccccc2)C1=Nc1ccccc1 , what is it?
Reply text: 1.51

Inquiry: For CN(Cc1cccc(Cl)c1)c1ccc(CO)c(Cl)c1 then?
Reply text: 1.18

Inquiry: Same question, O=CC1C(=O)Nc2nc3ccccc3n2C1c1ccccc1 (stereo unspecified) this time
Reply text: 1.92

Inquiry: Next: CC(=O)Oc1cc(OC(C)=O)c(OC(C)=O)c2c1CC1C(=O)C3(CCc4ccccc43)C(=O)C1C2 (stereo unspecified)
Reply text: 1.45

###

# System: HS 578T breast
# test_method_notes: NCI tumour cell line growth inhibition, 48 h
Consider the following compounds and their measured GI50 readings.

Known results for compounds:
                                 cpd_smiles  measured_value
0  O=c1c(-c2nc3ccccc3[nH]2)cc2ccccc2n1Cc1cn(Cc2ccc(F)cc2)nn1       0.0546 µM
1  O=[N+]([O-])c1ccc(N/N=C\c2ccc(O)cc2O)nc1         38.3 µM
2  C=CCOc1ccc2c(c1)CC[C@@H]1[C@@H]2CC[C@]2(C)C(=O)/C(=N/O)C[C@@H]12         1.93 µM

Now examine the next entry.
Inquiry: Could you tell me which GI50 is on file for Nc1c(C(=O)Nc2cccc3ccccc23)sc2nc3c(cc12)CCCCCC3 ?
Reply text: 1.59 µM

###

# System: UACC-257 melanoma
# test_method_notes: NCI tumour cell line growth inhibition, 48 h
assay_metric: GI50

Recorded GI50, per entry:
In [3]: df
Out[3]:
                                 cpd_smiles  target_under_test  measured_value
0   Clc1ccc2c(NCCCNCc3ccc4c(c3)OCO4)ccnc2c1  UACC-257 melanoma         1910 nM
1         CN(Cc1cccc(Cl)c1)c1ccc(CO)c(Cl)c1  UACC-257 melanoma          569 nM
2  CCCCCCOc1ccc(/C=N/Nc2cc(C)nc3ccc(Br)cc23)cc1  UACC-257 melanoma         1950 nM

Inquiry: Lab note: need GI50 with UACC-257 melanoma for entry COc1cc(Cl)c(C)cc1NC(=O)c1cc2ccccc2cc1O , please look it up.
Reply text: 1940 nM

Inquiry: Now consider Nc1c(C(=O)Nc2cccc3ccccc23)sc2nc3c(cc12)CCCCCC3 and answer again.
Reply text: > 50000 nM

Inquiry: Now try O=c1c(Br)ccc(Br)cc1Br .
Reply text: 1910 nM

Inquiry: # repeat for Nc1c(S(=O)(=O)O)cc2c(c1Cl)C(=O)c1ccccc1C2=O
Reply text: > 100000 nM

Inquiry: Also need O=c1c(-c2nc3ccccc3[nH]2)cc2ccccc2n1Cc1cn(Cc2ccc(F)cc2)nn1 , thanks.
Reply text: > 100000 nM

Inquiry: What about COc1ccc2c(c1)cn1c3ccc(OC)cc3[nH]c(=O)c21 ?
Reply text: 14600 nM

###

# System: CCRF-CEM leukemia
# test_method_notes: NCI tumour cell line growth inhibition, 48 h
In this section we review reported TGI values for a set of molecules.

Solved entries (count: 4):
>>> df
                                   molecule  target_under_test  measured_value
0  CN1CCN(C(=S)N(C(=O)c2ccc(Cl)cc2)C2CCCCC2)CC1  CCRF-CEM leukemia        > 100 µM
1  COc1ccc(-c2c(C#N)c(N)n(C3OC(COC(C)=O)C(OC(C)=O)C(OC(C)=O)C3OC(C)=O)c(=S)c2C#N)cc1 (configuration not stated)  CCRF-CEM leukemia        > 100 µM
2  O=[N+]([O-])c1cc(C2ON=C(c3ccccc3)N2C23CC4CC(CC(C4)C2)C3)ccc1Cl (configuration not stated)  CCRF-CEM leukemia        > 100 µM
3  COc1cc(C2C(Cl)C(=O)N2NC(=O)c2ccccc2O)cc(OC)c1OC (configuration not stated)  CCRF-CEM leukemia         > 10 µM

Inquiry: Which measured TGI value corresponds to CSc1nnc2n1-c1ccccc1SCC2 ?
Reply text: > 100 µM

Inquiry: What about this molecule? CN=C(NC#N)NCc1ccccc1
Reply text: > 100 µM

Inquiry: Check COc1cc(/C=C/C(=O)c2ccc(SC)cc2)cc(OC)c1OC too.
Reply text: 21.1 µM

Inquiry: And what about the molecule Cc1nc2c(ccc3[nH]c4ccccc4c32)s1 ?
Reply text: > 100 µM

###

Measured TGI by item
# System: NCI-H522 lung
# test_method_notes: NCI tumour cell line growth inhibition, 48 h
Note: unit µM is implicit; provide only the numeric part.

>>> df
                                   molecule  target_under_test  assay_metric  units_symbol  measured_value
0  CC1(C)CC(=O)C(/C=N/c2nc(-c3cccc([N+](=O)[O-])c3)cs2)=C(O)C1      NCI-H522 lung           TGI            µM            23.7

Inquiry: // fetch NCI-H522 lung TGI for C=CCOC1=C(OC(C)=O)C(C2COC(C)(C)O2)OC1=O (stereo not given)
Reply text: 5.45

Inquiry: Could you do the same for Nc1ncnc2c1c(-c1ccc(Oc3ccccc3)cc1)nn2C[C@H]1SSC[C@H]1O , please?
Reply text: 3.16

###

# Tested on: M14 melanoma
# test_method_notes: NCI tumour cell line growth inhibition, 48 h
assay_metric: GI50

Check out these entries, answers already filled in.
In [3]: df
Out[3]:
                                 cpd_smiles  target_under_test  measured_value
0  COc1cc(-c2cc(C(=O)N3CCN(C(=O)c4ccccc4NCc4cccs4)CC3)nc3cc(-c4ccccc4)nn23)cc(OC)c1OC       M14 melanoma         5.91 µM
1  COC(=O)/C=C/c1cc(OC)c2c(c1)[C@@H](C(=O)OC)[C@H](c1ccc(OC)c(OC)c1)O2       M14 melanoma        0.816 µM
2  COc1cc(/C=C/C(=O)c2ccc(SC)cc2)cc(OC)c1OC       M14 melanoma         10.5 µM
3  O=C1/C=C/[C@@H](O)[C@@H]2C[C@@H](O)C[C@H]2/C=C/CCCCO1       M14 melanoma        0.336 µM

We next turn to a different compound, shown below.
Inquiry: Given the entry CCc1cc(Cc2cc(CC)cc(C(C)(C)C)c2O)c(O)c(C(C)(C)C)c1 , report its measured GI50.
Reply text: 3.63 µM

###

# System: MOLT-4 leukemia
# test_method_notes: NCI tumour cell line growth inhibition, 48 h
assay_metric: TGI

In [3]: df
Out[3]:
                                   compound  measured_value
0      CN(C)CCNc1nc2c(c(=O)n(C)c(=O)n2C)n1C        > 100 µM
1  COc1ccc(/C=C2\CCC(CN(C)C)C2=O)cc1 (stereo unspecified)         6.85 µM
2  CC(NC(=O)C1(N)CCCC1)C(=O)O (stereo unspecified)        > 100 µM
3           Cc1cc(=O)[nH]c2c1C(=O)C(=O)C=C2        > 100 µM

Inquiry: Return reported TGI; argument: CCOC(=O)C(/C=N/C(N)=S)=C(/O)c1ccccc1
Reply text: > 100 µM

Inquiry: Same thing, different compound: Cc1nc(N(C)C)nc(-c2cccc(-c3ccn(CCN(C)C)n3)c2)c1C
Reply text: > 20 µM

src = PubChem BioAssay (NCI)
